Df (fluorescence quantum yield) values for the molecules below.
EXPERIMENT_SUMMARY: Optical and photophysical properties of metallotexaphyrins (laser flash photolysis, fluorescence, singlet oxygen luminescence)
Format: physicochemical
STATED_CONDITIONS: CH3 OH; ±10%
# respond with the number and nothing more

Please look up its Df (fluorescence quantum yield): `CCC1=C(C)c2cnc3ccc(Cl)cc3ncc3nc(cc4[n-]c(cc1n2)c(CC)c4CC)C(CC)=C3C.O=[N+]([O-])[O-].[Cd+2]`
0.009

Please look up its Df (fluorescence quantum yield): `CCC1=C(C)c2cnc3ccccc3ncc3nc(cc4[n-]c(cc1n2)c(CC)c4CC)C(CC)=C3C.O=[N+]([O-])[O-].[Cd+2]`
0.011

----------
EXPERIMENT_SUMMARY: Optical and photophysical properties of metallotexaphyrins (laser flash photolysis, fluorescence, singlet oxygen luminescence)
Type: physicochemical
STATED_CONDITIONS: CH3 OH; second value (Q-type)
Absorption gmax (Q-type band) values for the molecules below.
Please respond with the number in nm and leave the unit unwritten.

Observe how each entry below is paired with its result.
• CCC1=C(C)c2cnc3ccccc3ncc3nc(cc4[n-]c(cc1n2)c(CC)c4CC)C(CC)=C3C.[Mn+2].[OH-] = 760
• CCC1=C(C)c2cnc3cc(C)c(C)cc3ncc3nc(cc4[n-]c(cc1n2)c(CC)c4CC)C(CC)=C3C.[OH-].[OH-].[Sm+3] = 763
• CCC1=C(C)c2cnc3ccc(Cl)cc3ncc3nc(cc4[n-]c(cc1n2)c(CC)c4CC)C(CC)=C3C.O=[N+]([O-])[O-].[Cd+2] = 760

Please look up its Absorption gmax (Q-type band): `CCC1=C(C)c2cnc3ccccc3ncc3nc(cc4[n-]c(cc1n2)c(CC)c4CC)C(CC)=C3C.O=[N+]([O-])[O-].[Cd+2]`
759

Please look up its Absorption gmax (Q-type band): `CCC1=C(C)c2cnc3cc(C)c(C)cc3ncc3nc(cc4[n-]c(cc1n2)c(CC)c4CC)C(CC)=C3C.[Eu+3].[OH-].[OH-]`
762

----------
EXPERIMENT_SUMMARY: Optical and photophysical properties of metallotexaphyrins (laser flash photolysis, fluorescence, singlet oxygen luminescence)
Type: physicochemical
STATED_CONDITIONS: CH3 OH; first value (Soret)
Absorption gmax (Soret-type band) values for the molecules below.
Please respond with the number in nm and leave the unit unwritten.

Observe how each entry below is paired with its result.
* CCC1=C(C)c2cnc3cc(C)c(C)cc3ncc3nc(cc4[n-]c(cc1n2)c(CC)c4CC)C(CC)=C3C.[Eu+3].[OH-].[OH-] [7C (OH)2] | 451
* CCC1=C(C)c2cnc3ccccc3ncc3nc(cc4[n-]c(cc1n2)c(CC)c4CC)C(CC)=C3C.O=[N+]([O-])[O-].[Cd+2] [3C NO3] | 417
* CCC1=C(C)c2cnc3cc(C)c(C)cc3ncc3nc(cc4[n-]c(cc1n2)c(CC)c4CC)C(CC)=C3C.[OH-].[OH-].[Sm+3] [6C (OH)2] | 450
* CCC1=C(C)c2cnc3ccccc3ncc3nc(cc4[n-]c(cc1n2)c(CC)c4CC)C(CC)=C3C.[Mn+2].[OH-] [5C OH] | 420

Shift focus to the following entry.
Please look up its Absorption gmax (Soret-type band): CCC1=C(C)c2cnc3ccc(Cl)cc3ncc3nc(cc4[n-]c(cc1n2)c(CC)c4CC)C(CC)=C3C.O=[N+]([O-])[O-].[Cd+2] [4C NO3]
421
